The measured values listed here are drawn from patent US20260242478A1.

# Measured on: T1, Anti-CD28 Fab (SEQ ID NOs: 696, 697)
# T1 construct: In the phage ELISA the Fab was biotinylated and captured on neutravidin coated plates
# Protocol notes: phage binding ELISA, clonal phage on biotinylated anti-CD28 Fab captured on neutravidin plates, anti-M13 HRP detection
Where no end group is shown, it is not given here.
Quantity measured: Anti-CD28 Fab (SEQ ID NOs: 696, 697) signal
Field format: numeric only.

The following binders have reported results that may help.
binder="YCEGHLAQYMNKCL (Peptide-87 library clone, tested as clonal phage supernatant) [Phage-846]" value_observed=1.76
binder="YCDGHVQEYMQKCL (Peptide-87 library clone, tested as clonal phage supernatant) [Phage-847]" value_observed=1.76

The record that follows has no Anti-CD28 Fab (SEQ ID NOs: 696, 697) signal shown yet.
So what does the record say about Anti-CD28 Fab (SEQ ID NOs: 696, 697) signal for YCDGHVEPYLSKCL (cysteine pairing not given here; also: displayed on phage by fusion to pIII, pIII and linker sequence not given here, Peptide-87 library clone, tested as clonal phage supernatant) [Phage-843] ?
1.76
